Biological target: Prostaglandin G/H synthase 2 (Homo sapiens, UniProt P35354)
Sequence (P35354 whole entry): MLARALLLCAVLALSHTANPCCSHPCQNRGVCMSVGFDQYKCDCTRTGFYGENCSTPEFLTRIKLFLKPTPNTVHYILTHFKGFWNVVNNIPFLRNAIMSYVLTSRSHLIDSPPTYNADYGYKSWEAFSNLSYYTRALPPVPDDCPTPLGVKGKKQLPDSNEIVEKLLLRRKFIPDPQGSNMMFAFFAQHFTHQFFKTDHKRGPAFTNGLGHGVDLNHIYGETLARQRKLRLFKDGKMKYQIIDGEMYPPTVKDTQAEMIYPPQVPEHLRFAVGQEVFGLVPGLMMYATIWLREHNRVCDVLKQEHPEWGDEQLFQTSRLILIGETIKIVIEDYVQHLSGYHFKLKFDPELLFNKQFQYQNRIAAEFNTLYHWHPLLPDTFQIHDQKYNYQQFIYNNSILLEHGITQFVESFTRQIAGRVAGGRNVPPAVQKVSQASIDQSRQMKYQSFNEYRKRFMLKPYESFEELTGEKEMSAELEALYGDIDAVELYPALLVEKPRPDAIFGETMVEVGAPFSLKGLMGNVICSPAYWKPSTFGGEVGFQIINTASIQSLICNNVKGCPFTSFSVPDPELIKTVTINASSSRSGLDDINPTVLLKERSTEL
pIC50: −log10 of the molar value.
quantity: pIC50

a. CC(=O)Oc1ccccc1SCCCCCCBr
b. CC(=O)OCCCCCSc1ccccc1OC(C)=O
Query: # compare pIC50 for a vs b ; return the one with the smaller value Selection: enter the item's label.
Reply: b
(b: 4.30, a: 4.92)

----------
pIC50 for assorted molecules
Molecular target: Prostaglandin G/H synthase 2 (Homo sapiens, UniProt P35354)
Sequence (P35354 whole entry): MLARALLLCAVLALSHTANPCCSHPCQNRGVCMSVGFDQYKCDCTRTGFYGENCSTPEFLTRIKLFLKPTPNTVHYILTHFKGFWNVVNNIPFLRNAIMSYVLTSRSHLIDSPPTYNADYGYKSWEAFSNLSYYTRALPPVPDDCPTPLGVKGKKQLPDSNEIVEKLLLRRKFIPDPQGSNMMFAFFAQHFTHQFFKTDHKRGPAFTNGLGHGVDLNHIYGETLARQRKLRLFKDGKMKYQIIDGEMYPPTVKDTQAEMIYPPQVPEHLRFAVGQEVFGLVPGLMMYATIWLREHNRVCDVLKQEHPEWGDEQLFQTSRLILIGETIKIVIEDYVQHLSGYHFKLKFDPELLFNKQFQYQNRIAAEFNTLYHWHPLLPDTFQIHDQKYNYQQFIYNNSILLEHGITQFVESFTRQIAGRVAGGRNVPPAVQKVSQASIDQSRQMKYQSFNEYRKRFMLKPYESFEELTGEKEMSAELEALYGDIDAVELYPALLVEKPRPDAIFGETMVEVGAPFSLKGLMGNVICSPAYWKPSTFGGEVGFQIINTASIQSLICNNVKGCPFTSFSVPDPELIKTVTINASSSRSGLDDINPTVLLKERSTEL
pIC50: −log10 of the molar value.

Known results for molecules:
{"columns": ["molecule", "pIC50"],
 "data": [
  ["CCC(=O)Oc1ccccc1SC", "< 3.00"],
  ["CC(=O)Oc1ccccc1SC1CCCCC1", "< 4.40"]
]}

Kindly note the recorded pIC50 for CCCCCCC[Se]c1ccccc1OC(C)=O , which is 4.92

The molecule listed as CC(=O)Oc1ccccc1SCCCCC(=O)O has a reported pIC50 of < 4.30

Entry CC(=O)Oc1ccccc1SCCCCCCI , pIC50 reported as 5.00

Noted for CCCCCCCOc1ccccc1OC(C)=O : its pIC50 reads < 4.40

Looking up CC(=O)Oc1ccccc1SCCCOc1ccccc1 , I found its pIC50 recorded as < 3.00

GET /value?item= CCCCC#CC(C)Sc1ccccc1OC(C)=O (stereo not drawn) &field=pIC50 returns 5.15

----------
pIC50: −log10 of the molar value.
Measured pIC50 (Prostaglandin G/H synthase 2 (Homo sapiens, UniProt P35354))

Recorded pIC50, per entry:
{"columns": ["structure", "assayed_target", "observed_result"],
 "data": [
  ["CC(=O)Oc1ccccc1SCCCCCC(=O)O", "Prostaglandin G/H synthase 2 (Homo sapiens, UniProt P35354)", 4.30],
  ["CC(=O)Oc1ccccc1SCCCc1ccccc1", "Prostaglandin G/H synthase 2 (Homo sapiens, UniProt P35354)", "< 3.00"],
  ["CCCCCCCCCSc1ccccc1OC(C)=O", "Prostaglandin G/H synthase 2 (Homo sapiens, UniProt P35354)", "< 4.40"]
]}

Noted pIC50 for CCCCCCCS(=O)(=O)c1ccccc1OC(C)=O , tested on Prostaglandin G/H synthase 2 (Homo sapiens, UniProt P35354): < 4.40
